Test system: MOLT-4 leukemia
Experiment: NCI-60 one-dose screen, 48 h (100 = growth as untreated, 0 = no growth, -100 = all killed)
Conditions: 10 µM unless noted
The panel holds about 83,000 compounds, 20% with a hit somewhere; the sample as a whole holds those more often.
Kindly supply the reported growth values for the records listed here.
Give bare numbers, in %.

Give growth for all compounds that follow.
1. S=C=Nc1ccc2ccccc2c1
2. C=CCNC(=S)N/C=C(/C(=O)c1ccccc1)c1ccccc1
3. CC(C)N(CCCC#N)C(C)C
4. CN1C(=O)NC(c2ccc(Cl)cc2)(c2ccc(Cl)cc2)C1=O
5. COc1ccc(Nc2cc(Cl)ccc2C(=O)O)cn1
6. O=c1cc(C(F)(F)F)[nH]c(=S)[nH]1

// result
1: 98.1; 2: 99.2; 3: 112; 4: 89.1; 5: 93.5; 6: 105

// each compound listed below needs its growth
1. CC(C)C(=O)OCCOc1ccc(C(C)(C)C)cc1
2. C=CC(C)C(C)(C)O (stereo unspecified)
3. O=C(OC1CCCC1)c1ccccc1Cl
4. O=C(Nc1cccc(Cl)c1)c1ccc(Cl)cc1Cl
5. COc1ccc(C(=O)C(=O)c2ccccc2)cc1
6. CCCCn1cnc2c(=O)[nH]cnc21

// result
1: 114; 2: 95.2; 3: 110; 4: 87.9; 5: 101; 6: 96.2

Hello, I would appreciate it if you could give growth for each entry below.
1. CC(=O)Nc1ccc(C(=O)c2ccc(S(=O)(=O)Nc3ccccc3)cc2)cc1
2. C[n+]1c(/C=C\C=C\N2CCCCC2)sc2ccccc21
3. NC(CO)(CO)c1ccccc1
4. COC(=O)c1ccc([N+](=O)[O-])c(C)c1

// result
[102, -9.41, 108, 112]
